Cited source for all entries: PubChem BioAssay (NCI)

- Test system: SNB-19 CNS
- TEST_SUMMARY: NCI tumour cell line growth inhibition, 48 h; in the data active = GI50 below about 0.43 µM; inactive = the rest
Possible outcomes: active, inactive

COMPOUND | CLASS
O=C(c1cccs1)c1c(C(F)(F)F)n([O-])c2cc(F)c(F)cc2[n+]1=O | inactive
COC(=O)c1c2c(c(C)[n+]([O-])c1C)C(=O)C(NCc1ccc(F)c(Cl)c1)=CC2=O | inactive
CCOC(=O)c1cc(C(=O)c2cc(OC)cc(OC)c2)n2ncccc12 | inactive
C[C@]12CC[C@H]3[C@@H](C[C@@H]4SC(Nc5cccc(F)c5)=N[C@@]45CC(=O)CC[C@]35C)[C@@H]1CCC2=O | inactive
N#CC1=C(N)Oc2c(sc3c(F)cccc23)C1c1ccc([N+](=O)[O-])cc1 (stereo not drawn) | active
O=C(N/N=C/c1cc2ccccc2c2ccccc12)c1cc(O)c(O)c(O)c1 | inactive
COC(=O)/C(=C/N1CCN(C(=O)c2ccco2)C1=S)C(C)=O | inactive
O=C(Oc1ccc([N+](=O)[O-])cc1)N1CCC(C(O)(c2ccc3c(c2)OCO3)c2ccc3c(c2)OCO3)CC1 | inactive
N#Cc1ccc(-n2cnc(NC(=O)[C@H]3CCN(C#N)C3)c2)cc1 | inactive
CCOC(=O)c1c(C)c2c(n1C)CSc1cc(S(=O)(=O)c3ccccc3)c(=O)[nH]c1-2 | inactive
Cc1ccc(NC2=C(Cl)C(=O)c3nc(C)ccc3C2=O)cc1 | inactive
COc1ccc2[nH]cc(/C=C3\C(=O)Nc4ccccc43)c2c1 | inactive
O=C1C(Nc2ccccn2)=C(I)C(=O)c2ncccc21 | inactive

---

- Tested on: IGROV1 ovarian
- TEST_SUMMARY: NCI tumour cell line growth inhibition, 48 h
Where a SMILES comes first, the peptide text is derived from it. [ ]: non-standard residue; d: D form. 2Nal = N[CH](Cc1ccc2ccccc2c1)C(=O)O
Listed molecules paired with reported GI50

MOLECULE | GI50
CC(NC(=O)C(N)Cc1ccccc1)C(=O)NC(Cc1ccc(O)cc1)C(=O)NC(Cc1c[nH]c2ccccc12)C(=O)NC(CCCCN)C(=O)NC(C(=O)NC(C)C(=O)NC(Cc1ccc2ccccc2c1)C(N)=O)C(C)C (stereo not given) (H-FAYWKVA[2Nal]-NH2; configuration not given here) | 24.1 µM
Cc1ccc(NC2=C(Cl)C(=O)c3nc(C)ccc3C2=O)cc1 | 1.54 µM
COc1cc2cc(C(=O)O)[nH]c2cc1OCc1ccccc1 | > 100 µM
O=C(Nc1ccc(-n2cc(-c3ccncc3)c(-c3ccc(Cl)c(O)c3)n2)cc1)c1cc(Cl)cc(Cl)c1 | > 100 µM
C#C[C@]1(O)CC[C@H]2[C@@H]3CC=C4c5nc(Nc6ccc(OC)cc6OC)sc5CC[C@]4(C)[C@H]3CC[C@@]21C | 1.99 µM
O=[N+]([O-])c1ccc2nc(N/N=C/c3ccc(O)cc3)sc2c1 | 3.84 µM
C[C@]12CC[C@H]3[C@@H](C[C@@H]4SC(Nc5cccc(F)c5)=N[C@@]45CC(=O)CC[C@]35C)[C@@H]1CCC2=O | 1.89 µM
NC1=C(c2nc(-c3cc4ccccc4oc3=O)cs2)C(c2ccco2)c2c(c3ccccc3oc2=O)O1 (stereo not given) | > 150 µg/mL
Cc1ccnc2c1NC(=O)c1cccnc1N2C1CC1 | > 100 µM
O=C1c2cccc3c(N4CCN(c5ccc6c7c(cccc57)C(=O)N(CCN5CCNCC5)C6=O)CC4)ccc(c23)C(=O)N1CCN1CCNCC1 | 6.32 µM

---

Listed compounds paired with reported TGI
- System: RXF 393 renal
- TEST_SUMMARY: NCI tumour cell line growth inhibition, 48 h
READOUT_NAME: TGI

COMPOUND | DATA_VALUE
O=C1Nc2ccccc2SC1C1SC(=S)N(Cc2ccccc2)C1=O (stereo unspecified) | > 27.7 µM
C=CCCCC1(C)CCCCNC1=O (stereo unspecified) | > 10 µM
COc1ccc(OC)c(C2CCc3cnc4nc(N)nc(N)c4c3C2)c1 (stereo unspecified) | 83.3 µM
O=C1/C(=C\c2ccccc2)c2ccccc2N1Cc1ccccc1 | 16.1 µM
Nc1ncnc2c1ncn2CC(OCP(=O)(O)O)Oc1ccccc1 (stereo unspecified) | > 100 µM
COc1cc(/C=C2\NC(=O)N(/C=C3\C(=O)Oc4ccccc4C3=O)C2=O)ccc1O | 99.2 µM

---

- Tested on: U251 CNS
- TEST_SUMMARY: NCI tumour cell line growth inhibition, 48 h

STRUCTURE | TGI
O=C1CCC(=O)c2cc(Br)ccc2N1 | > 100 µM
Nc1nc(Cl)cc(Nc2ccc3c(c2)CCC3)n1 | > 100 µM
O=C(NCCNCCO)c1ccc2oc3cc4ccccc4c(=O)n3c2c1 | 17.1 µM
CC[n+]1[b-](C(C)(C)C)n(/N=C(\C)C(C)(C)C)[b-](C(C)(C)C)[n+]1CC | > 100 µM
Cc1ccccc1NC(=O)C(=O)Cc1nc2ccccc2s1 | > 100 µM
Cc1cc2c3c(ccc4ncc(c43)CN2c2ccc(NS(C)(=O)=O)cc2)[nH]1 | > 100 µM

---

- Test system: SR leukemia
- TEST_SUMMARY: NCI tumour cell line growth inhibition, 48 h

COMPOUND | TARGET_OF_ASSAY | TGI
Cc1ccnc2c1NC(=O)c1cccnc1N2C1CC1 | SR leukemia | > 100 µM
C/C=C(/C)C(=O)OC1C=C(CO)C(=O)C(OC(=O)/C(C)=C\C)C1C(C)C (stereo not drawn) | SR leukemia | 3.69 µM
C/C=C/C=C/[C@H]1Cc2cc(O)cc(O)c2O1 | SR leukemia | > 100 µM
O=C1c2c(Br)sc(Br)c2[C@H]2NC(=S)O[C@@H]12 | SR leukemia | 15.3 µM
CN(C)CCCC1(c2ccc(F)cc2)OCc2cc(-c3ccc4cc[nH]c4c3)ccc21 (stereo not drawn) | SR leukemia | 5.41 µM
COc1ccc(/C=N/NC(=O)O)cc1 | SR leukemia | > 100 µM
CCC(C)(C)NC1=C(NC(C)=O)C(=O)c2ccccc2C1=O | SR leukemia | > 75 µM
Cc1cc(NC(=O)CCc2ccc(N3C(N)=NC(N)=NC3(C)C)cc2)ccc1S(=O)(=O)F | SR leukemia | > 100 µM
O=[N+]([O-])C(=C1Nc2ccccc2N1)C(Cl)=C(Cl)Cl | SR leukemia | > 100 µM
COc1cc(Cn2c3c(c4cc(O)ccc42)C(=O)c2ccccc2C3=O)cc(OC)c1 | SR leukemia | 25.2 µM
O=C1CCC(=O)c2cc(Br)ccc2N1 | SR leukemia | 63.1 µM
Cc1c2n(c3ccccc13)CC1C2N(C)OC1(C)C (stereo not drawn) | SR leukemia | > 100 µM
O=S(=O)(Nc1ccccc1S(=O)(=O)c1ccccc1)c1ccccc1 | SR leukemia | > 100 µM
O=C(Nc1ccc(-n2cc(-c3ccncc3)c(-c3ccc(Cl)c(O)c3)n2)cc1)c1cc(Cl)cc(Cl)c1 | SR leukemia | > 100 µM
Cc1cccc(C)c1NC(=S)/N=C/C1=C(O)c2ccccc2C1=O | SR leukemia | 8.19 µM
CCCCNc1nc(SC)nc2nc[nH]c12 | SR leukemia | > 100 µM
CCOC(=O)C(=Cc1ccc(Br)cc1)C(=O)OCC | SR leukemia | > 23.1 µM
CC(O[Si](C)(C)C(C)(C)C)[C@H](NC(=O)OCC(Cl)(Cl)Cl)C(=O)O (stereo partly drawn) | SR leukemia | > 100 µM
O=C(Nc1cc(C(F)(F)F)ccc1Cl)C(=O)C(C(=O)c1ccc2ccccc2c1)C1OC(=O)c2ccccc21 (stereo not drawn) | SR leukemia | 14.9 µM
CC1C(c2ccccc2O)c2cc3c(cc2OC1N1CCCC1)OCO3 (stereo not drawn) | SR leukemia | 54.2 µM
NC(C(=O)O)C(N)C(=O)O (stereo not drawn) | SR leukemia | > 100 µM
Cc1cccc(NC(=O)CC2C(=O)Nc3ccccc3S2(=O)=O)c1C (stereo not drawn) | SR leukemia | 48 µM
CC1(C)[C@H](O)CC[C@]2(C)C3=CC[C@@]4(C)[C@@H]5C[C@](C)(CO)CC[C@]5(C)CC[C@]4(C)C3=CC[C@@H]12 | SR leukemia | 4.72 µM
CS(=O)(=O)C(=Cc1ccccc1Cl)S(C)(=O)=O | SR leukemia | > 100 µM
N#CC1=C(N)Oc2c(sc3c(F)cccc23)C1c1ccc([N+](=O)[O-])cc1 (stereo not drawn) | SR leukemia | 7.42 µM
C=CC(=O)Nc1cc2c(Nc3ccc(OCc4ccccn4)c(Cl)c3)ncnc2cc1OCCN1CCOCC1 | SR leukemia | > 100 µM
CNC(Cc1ccccc1)c1cccc(OC)c1O (stereo not drawn) | SR leukemia | > 100 µM
N#Cc1c(N2CCOCC2)ncn(-c2ccccc2)c1=O | SR leukemia | > 100 µM
CC1=CCC2(C#N)CCC1C2=O (stereo not drawn) | SR leukemia | > 100 µM
CC1CC(=O)C(C(O)CC2CC(=O)N(c3ccccc3)C(=O)C2)C(C)C1 (stereo not drawn) | SR leukemia | > 100 µM
CCOC(=O)c1sc2nc(SC)nc(Nc3ccc(OC)c(OC)c3)c2c1N | SR leukemia | > 100 µM
CC1=CC(C)C(O)C(C)/C=C/C(O)C/C=C(/C)C(=O)CC(O)C(C)\C=C/C=C/C=C\C(=O)NC2=C(O)c3cc(C)c(O)c(c3C(=O)C2=O)C1=O (stereo not drawn) | SR leukemia | > 100 µM
C[n+]1c2ccccc2c(NC(CCC(N)=O)C(=O)O)c2ccccc21 (stereo not drawn) | SR leukemia | > 100 µM
Cc1c(-c2ccccc2)n(C)c2cn[nH]c(=O)c12 | SR leukemia | 70.9 µM
O=C(c1cccs1)c1c(C(F)(F)F)n([O-])c2cc(F)c(F)cc2[n+]1=O | SR leukemia | 0.48 µM
COc1ccc2cc(C(=O)/C=C/c3ccc(OC)c(OC)c3)ccc2c1 | SR leukemia | 6.16 µM
C=C(C)C1CC[C@]2(C(=O)O)CCC3(C)[C@H](CCC4[C@@]5(C)CC[C@H](OC6OC(CO)C(O)C6OC6OC(C)C(O)C(O)C6O)[C@@](C)(CO)C5CC[C@]43C)C12 (stereo partly drawn) | SR leukemia | > 100 µM
COc1cc2cc(C(=O)O)[nH]c2cc1OCc1ccccc1 | SR leukemia | > 100 µM
